Cited source: patent US20040224935A1

Tested on: Hamster's ear sebaceous glands
Experiment: Topical antiandrogenic activity, histomorphometry of the ear sebaceous glands in the hamster
Format: in vivo, Male Golden Syrian hamster
Details: Mesocricetus auratus, 336 h, dose 3 μg applied topically on left ear of intact male hamster, once daily, 14 days, sebaceous gland area, read-out: Antiandrogenic activity in Hamster's sebaceous glands Inh. Vs Cx (%)
Criterion: inhibition in vivo at 0.003 mg meeting or surpassing 10%. Met: yes (1). Not met: no (0).

>  <compound>
C[C@@H]1CCC2C3CCc4c(C#N)cccc4C3CC[C@]2(C)[C@H]1O (stereo partly drawn) [EM-3803]

>  <className>
yes (1)

$$$$
>  <compound>
C[C@]12CCC3c4cccc(C#N)c4CCC3C1C[C@@H](C#CC1CC1)[C@@H]2O (stereo partly drawn) [EM-3473]

>  <className>
no (0)

$$$$
>  <compound>
CC[C@@]1(C)C[C@H]2[C@@H]3CCc4c(C#N)cccc4[C@H]3CC[C@]2(C)C1=O [EM-3180]

>  <className>
yes (1)

$$$$
>  <compound>
C[C@@H]1CC2C3CCc4c(C#N)cccc4C3CC[C@]2(C)C1=O (stereo partly drawn) [EM-3223]

>  <className>
yes (1)

$$$$
>  <compound>
CC[C@]1(C)CC2C3CCc4c(C#N)cccc4C3CC[C@]2(C)C1=O (stereo partly drawn) [EM-3217]

>  <className>
no (0)

$$$$
>  <compound>
CC[C@@]1(C)C[C@H]2[C@@H]3CCc4c(C#N)cccc4[C@H]3CC[C@]2(C)[C@H]1O [EM-3221]

>  <className>
no (0)

$$$$

* * *

Test system: Shionogi mouse mammary carcinoma cells
Assay: In vitro androgenic/antiandrogenic activity, DHT-stimulated Shionogi cell number
Assay type: cell-based
Details: OH-Flu = 1; DHT-stimulated cell number; higher values preferable
Quick reference for Shionogis (In Vitro) VS OH-FLU (ratio of Ki of hydroxyflutamide versus tested compound) among some compounds
valueKind: Shionogis (In Vitro) VS OH-FLU (ratio of Ki of hydroxyflutamide versus tested compound)

>  <compound>
CC[C@@]1(C)C[C@H]2[C@@H]3CCc4c(C#N)cccc4[C@H]3CC[C@]2(C)[C@H]1O

>  <valueReported>
6.6

$$$$
>  <compound>
CC[C@@]1(C)C[C@H]2[C@@H]3CCc4c(C#N)cccc4[C@H]3CC[C@]2(C)C1=O

>  <valueReported>
2

$$$$
>  <compound>
CC[C@@H]1CC2C3CCc4c(C#N)cccc4C3CC[C@]2(C)[C@H]1O (some centres unmarked)

>  <valueReported>
8.7

$$$$
>  <compound>
C#Cc1ccc2c(c1)CCC1C2CC[C@@]2(C)C1C[C@@H](C)[C@@H]2O (some centres unmarked)

>  <valueReported>
1.6

$$$$
>  <compound>
CC(C)C#C[C@]1(O)CCC2C3CCc4c(C#N)cccc4C3CC[C@@]21C (some centres unmarked)

>  <valueReported>
5.0

$$$$
>  <compound>
CC1(C)C[C@H]2[C@@H]3CCc4cc(F)ccc4[C@H]3CC[C@]2(C)[C@H]1O

>  <valueReported>
1.5

$$$$
>  <compound>
CC(=O)O[C@H]1C(C)(C)CC2C3CCc4c(C#N)cccc4C3CC[C@@]21C (some centres unmarked)

>  <valueReported>
4.1

$$$$
>  <compound>
CCC=C[C@]1(O)CCC2C3CCc4c(C#N)cccc4C3CC[C@@]21C (some centres unmarked)

>  <valueReported>
8.5

$$$$
>  <compound>
CCCC#C[C@@H]1CC2C3CCc4c(C#N)cccc4C3CC[C@]2(C)[C@H]1O (some centres unmarked)

>  <valueReported>
7.2

$$$$
>  <compound>
CC1(C)CC2C3CCc4c(Cl)cccc4C3CC[C@]2(C)[C@H]1O (some centres unmarked)

>  <valueReported>
2.5

$$$$
>  <compound>
CC#C[C@@H]1CC2C3CCc4c(C#N)cccc4C3CC[C@]2(C)[C@H]1O (some centres unmarked)

>  <valueReported>
8.3

$$$$
>  <compound>
C[C@]12CCC3c4cccc(C#N)c4CCC3C1C[C@@H](C#CC1CC1)[C@@H]2O (some centres unmarked)

>  <valueReported>
9

$$$$
>  <compound>
CC(C)[C@H]1CC2C3CCc4c(C#N)cccc4C3CC[C@]2(C)[C@H]1O (some centres unmarked)

>  <valueReported>
5

$$$$
>  <compound>
CC[C@]1(C)CC2C3CCc4c(C#N)cccc4C3CC[C@]2(C)[C@H]1O (some centres unmarked)

>  <valueReported>
5.9

$$$$
>  <compound>
CC#Cc1ccc2c(c1C#N)CCC1C2CC[C@]2(C)C(=O)CCC12 (some centres unmarked)

>  <valueReported>
3.7

$$$$

* * *

Test system: Hamster's ear sebaceous glands
Experiment: Topical antiandrogenic activity, histomorphometry of the ear sebaceous glands in the hamster
Assay type: in vivo, Male Golden Syrian hamster
Conditions: Mesocricetus auratus, 336 h, dose 1 μg applied topically on left ear of intact male hamster, once daily, 14 days, sebaceous gland area, read-out: Antiandrogenic activity in Hamster's sebaceous glands Inh. Vs Cx (%)
valueKind: inhibition in vivo at 0.001 mg (%)

>  <molecule>
CC#C[C@@H]1CC2C3CCc4c(C#N)cccc4C3CC[C@]2(C)[C@H]1O (some centres unmarked) [EM-2627]

>  <valueReported>
14.3

$$$$
>  <molecule>
CC1(C)CC2C3CCc4c(C#N)cccc4C3CC[C@]2(C)[C@H]1O (some centres unmarked) [EM-2557]

>  <valueReported>
52.4

$$$$
>  <molecule>
CC#Cc1ccc2c(c1C#N)CCC1C2CC[C@]2(C)C(=O)CCC12 (some centres unmarked) [EM-4142]

>  <valueReported>
18.5

$$$$
>  <molecule>
CC1(C)CC2C3CCc4c(Cl)cccc4C3CC[C@]2(C)[C@H]1O (some centres unmarked) [EM-3415]

>  <valueReported>
0

$$$$
>  <molecule>
CC(=O)O[C@H]1C(C)(C)CC2C3CCc4c(C#N)cccc4C3CC[C@@]21C (some centres unmarked) [EM-3178]

>  <valueReported>
9.5

$$$$

* * *

System: Hamster's ear sebaceous glands
Experiment: Topical antiandrogenic activity, histomorphometry of the ear sebaceous glands in the hamster
Format: in vivo, Male Golden Syrian hamster
Conditions: Mesocricetus auratus, 336 h, dose 1 μg applied topically on left ear of intact male hamster, once daily, 14 days, sebaceous gland area, read-out: Antiandrogenic activity in Hamster's sebaceous glands Inh. Vs Cx (%)
Entries annotated with measured inhibition in vivo at 0.001 mg

>  <compound>
C[C@@H]1CCC2C3CCc4c(C#N)cccc4C3CC[C@]2(C)[C@H]1O (some centres unmarked) [EM-3803]

>  <unitAnnotation>
%

>  <inhibition in vivo at 0.001 mg>
33.3

$$$$
>  <compound>
CC[C@@]1(C)C[C@H]2[C@@H]3CCc4c(C#N)cccc4[C@H]3CC[C@]2(C)[C@H]1O [EM-3221]

>  <unitAnnotation>
%

>  <inhibition in vivo at 0.001 mg>
0

$$$$
>  <compound>
CCCC#C[C@@H]1CC2C3CCc4c(C#N)cccc4C3CC[C@]2(C)[C@H]1O (some centres unmarked) [EM-3165]

>  <unitAnnotation>
%

>  <inhibition in vivo at 0.001 mg>
19

$$$$
>  <compound>
C[C@@H]1CC2C3CCc4c(C#N)cccc4C3CC[C@]2(C)C1=O (some centres unmarked) [EM-3223]

>  <unitAnnotation>
%

>  <inhibition in vivo at 0.001 mg>
25.9

$$$$
>  <compound>
CCC=C[C@]1(O)CCC2C3CCc4c(C#N)cccc4C3CC[C@@]21C (some centres unmarked) [EM-3144]

>  <unitAnnotation>
%

>  <inhibition in vivo at 0.001 mg>
9.5

$$$$
>  <compound>
CC1(C)C[C@H]2[C@@H]3CCc4cc(F)ccc4[C@H]3CC[C@]2(C)[C@H]1O [EM-3497]

>  <unitAnnotation>
%

>  <inhibition in vivo at 0.001 mg>
62.9

$$$$
>  <compound>
C#Cc1ccc2c(c1)CCC1C2CC[C@@]2(C)C1C[C@@H](C)[C@@H]2O (some centres unmarked) [EM-5035]

>  <unitAnnotation>
%

>  <inhibition in vivo at 0.001 mg>
3.7

$$$$
>  <compound>
CCC1(CC)CC2C3CCc4c(C#N)cccc4C3CC[C@]2(C)C1=O (some centres unmarked) [EM-3411]

>  <unitAnnotation>
%

>  <inhibition in vivo at 0.001 mg>
3.7

$$$$
>  <compound>
CC[C@@]1(C)C[C@H]2[C@@H]3CCc4c(C#N)cccc4[C@H]3CC[C@]2(C)C1=O [EM-3180]

>  <unitAnnotation>
%

>  <inhibition in vivo at 0.001 mg>
57.1

$$$$
>  <compound>
CC[C@]1(C)CC2C3CCc4c(C#N)cccc4C3CC[C@]2(C)[C@H]1O (some centres unmarked) [EM-3226]

>  <unitAnnotation>
%

>  <inhibition in vivo at 0.001 mg>
7.4

$$$$
>  <compound>
C[C@]12CCC3c4cccc(C#N)c4CCC3C1C[C@@H](C#CC1CC1)[C@@H]2O (some centres unmarked) [EM-3473]

>  <unitAnnotation>
%

>  <inhibition in vivo at 0.001 mg>
7.4

$$$$
>  <compound>
CC[C@]1(C)CC2C3CCc4c(C#N)cccc4C3CC[C@]2(C)C1=O (some centres unmarked) [EM-3217]

>  <unitAnnotation>
%

>  <inhibition in vivo at 0.001 mg>
4.8

$$$$
>  <compound>
CC(C)C#C[C@]1(O)CCC2C3CCc4c(C#N)cccc4C3CC[C@@]21C (some centres unmarked) [EM-3166]

>  <unitAnnotation>
%

>  <inhibition in vivo at 0.001 mg>
47.6

$$$$
>  <compound>
CC(C)[C@H]1CC2C3CCc4c(C#N)cccc4C3CC[C@]2(C)[C@H]1O (some centres unmarked) [EM-4157]

>  <unitAnnotation>
%

>  <inhibition in vivo at 0.001 mg>
18.5

$$$$
